Please go through the items and note down their kd.
molecular target: SP34; assay: BLI affinity of biotinylated N-terminal CD3ε peptides (on SA biosensor) to SP34 as analyte; format: binding; settings: peptide immobilized
Sequence (as listed by the source): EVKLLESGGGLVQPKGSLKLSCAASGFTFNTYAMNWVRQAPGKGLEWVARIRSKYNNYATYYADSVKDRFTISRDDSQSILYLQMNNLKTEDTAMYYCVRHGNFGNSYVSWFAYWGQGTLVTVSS
Sequence (as listed by the source): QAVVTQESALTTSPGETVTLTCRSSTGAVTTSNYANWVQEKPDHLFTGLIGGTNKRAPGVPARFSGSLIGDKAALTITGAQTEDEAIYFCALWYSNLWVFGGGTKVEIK
No end group written: not given here.
Write the number in s⁻¹ without appending the unit.

Req: Which kd is listed for CD3ε-p2: N-terminal human CD3ε peptide with C-terminal GGGGS linker, biotinylated (QDGNEEMGGGGGS; not fully specified (C-terminus); also: biotinylated) ?
Resp: 0.00024

Req: What value of kd has been reported for the following substance? CD3ε-p3: N-terminal human CD3ε peptide with C-terminal GGGGS linker, biotinylated (QDGNEEMGGITGGGGS; not fully specified (C-terminus); also: biotinylated)
Resp: 0.00011

Req: Bench note: what kd did CD3ε-p5: N-terminal human CD3ε peptide with C-terminal GGGGS linker, biotinylated (QDGNEEMGGITQTPYKVGGGGS; not fully specified (C-terminus); also: biotinylated) show?
Resp: 9.8e-05

---

biological target: SP34; assay: BLI affinity of biotinylated N-terminal CD3ε peptides (on SA biosensor) to SP34 as analyte; type: binding; details: peptide immobilized
No end group written: not given here.
measured.attribute: pKd
For clarity, pKd is expressed as the negative log10 of concentration in mol/L.

Req: Quick check: pKd on SP34, item CD3ε-p7: N-terminal human CD3ε peptide with C-terminal GGGGS linker, biotinylated (QDGNEEMGGITQTPYKVSISGTTGGGGS; not fully specified (C-terminus); also: biotinylated, site not given here) ?
Resp: 8.89

Req: Lab note: need pKd for CD3ε-p3: N-terminal human CD3ε peptide with C-terminal GGGGS linker, biotinylated (QDGNEEMGGITGGGGS; not fully specified (C-terminus); also: biotinylated) on SP34, anyone have it?
Resp: 8.70

Req: Observed pKd on SP34 for CD3ε-p5: N-terminal human CD3ε peptide with C-terminal GGGGS linker, biotinylated (QDGNEEMGGITQTPYKVGGGGS; not fully specified (C-terminus); also: biotinylated) , please.
Resp: 8.74

Req: So what pKd did CD3ε-p2: N-terminal human CD3ε peptide with C-terminal GGGGS linker, biotinylated (QDGNEEMGGGGGS; not fully specified (C-terminus); also: biotinylated) get with SP34?
Resp: 8.44

Req: What measured pKd is associated with CD3ε-p6: N-terminal human CD3ε peptide with C-terminal GGGGS linker, biotinylated (QDGNEEMGGITQTPYKVSISGGGGS; not fully specified (C-terminus); also: biotinylated) on SP34?
Resp: 8.46

---

target: SP34; experiment: BLI affinity of biotinylated N-terminal CD3ε peptides (on SA biosensor) to SP34 as analyte; type: binding; settings: peptide immobilized
No end group written: not given here.
measured.attribute: kd (s⁻¹)
Answer format: numeric, s⁻¹ implied, no suffix.

Req: I have this substance here, CD3ε-p7: N-terminal human CD3ε peptide with C-terminal GGGGS linker, biotinylated (QDGNEEMGGITQTPYKVSISGTTGGGGS; not fully specified (C-terminus); also: biotinylated, site not given here) , and I need its recorded kd.
Resp: 0.00013

Req: Dear colleague, I am looking for the recorded kd of the following substance: CD3ε-p6: N-terminal human CD3ε peptide with C-terminal GGGGS linker, biotinylated (QDGNEEMGGITQTPYKVSISGGGGS; not fully specified (C-terminus); also: biotinylated)
Resp: 0.00016
